From: the supplement of paper PMC9170038

// reported apparent KD of K4 kissing-loop reporter per item
Tested on: K4 kissing-loop RNA reporter;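 note: bound reporter read as fluorescence of individual clusters on recovered sequencing chips by microscopy, with normalized cluster intensities fitted with a binding model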
method_summary: apparent KD of K4 kissing-loop reporter; higher = weaker reporter binding
experimental_conditions: Eterna round: R107; input ligand: theophylline 20 uM
State just the number; it will be interpreted in nM.

CGAGUGAUGUUCGUUUUUUUAUUUUUUUGACAGGAUAUGCGGAAACGCAGAAGGGUCACCUUUGAGUUAAAAGAAUUUAAAUUAU [Ex FMN A 23]
213
GCGCGGCAGGCGGCCGCCACUCUGACGAGCCACAGUGAUGUUGUGGUCGGAGAAACGUCUUCAUAGAGGACCGGGUUUGUUGUUC [Same State Typtophan A GF 25]
189
AUUCGUUUUUGUGAUACCAGACAUGUGAGUGAUGUUUACAUAUAUAUUUAAUAUUUAGCUGUCCCUUGGCAGCACUGUUUAUUUA [JR_ExcTheophyB_Sub003]
444

Param readout = apparent KD of K4 kissing-loop reporter; param system = K4 kissing-loop RNA reporter; param query = UGAUACCAGACGGCCGCCACUGCGCCAGUCAAUGACUGAGCGCGGUGGCGCUCAGUGAUGUUGUGCAGGACCGGGUCUGGUAUCU [Mod of Eli's TrypBX 8 v6] ; response: value 364

Param readout = apparent KD of K4 kissing-loop reporter; param system = K4 kissing-loop RNA reporter; param query = UGUCAUUGGUCGGCCGCCACUUCGUGUAGAGUGAUGUUUUGUAGGACGGAUCGAAAGAUCUGUCGGAGGACCGGGACCGAUGACU [FiskerMod 17 - Jieux - Same State - Tryptophan B] ; response: value 481

State its apparent KD of K4 kissing-loop reporter on K4 kissing-loop RNA reporter: AAGUGAUGUUGUAGUGAUGUUGUGAUGUUGCAGGAUAUAUAGUGAUGUAGAAGGGUAAGUACUGAUGUUGUUAGUGAGUGAUGUU [wwzrrmullin] 81.1

###

Test system: MS2 coat protein
method_summary: apparent KD of MS2 coat protein; designed switch direction (-1 OFF switch, 1 ON switch): -1; higher = weaker reporter binding
experimental_conditions: input ligand: none
assay_readout: apparent KD of MS2 coat protein (nM)
Your answer is read as nM, so omit the unit and give the number.

CCGGAACAUGAGGAUCACCCAUGUGAGGAUAUCGUACGUUCGUCGAAAGACGAUCGUACGAGAAGGCAUGCCGG [Eli x1 4.34] (Eterna round: R97, puzzle: Exclusion 1)
27.7
CCUCAGUAAGGAUAUCAGCUUAAGGAGGUGGUAAAGAGAGCUGAGAAGGUACAUGAGGAUCACCCAUGUUAAAA [Zatite] (Eterna round: R96, puzzle: Exclusion 4)
57.2

Then there is this sequence:
What does the record list as apparent KD of MS2 coat protein for GAUCAGGUAGGAUAUGCAGGAUCGGACUUGAGGAUCACCCAAGUGGCCAAAGUGCGUCCCGCAGAAGGGCCAAAAC [Biinxelace] (Eterna round: R97, puzzle: Exclusion 5) ? 618

###

Test system: MS2 coat protein
method_summary: apparent KD of MS2 coat protein; designed switch direction (-1 OFF switch, 1 ON switch): -1; higher = weaker reporter binding
experimental_conditions: Eterna round: R95; input ligand: microRNA oligo, concentration not stated
Everything with apparent KD of MS2 coat protein lower than 0.03 µM is not met; everything else, including exactly 0.03 µM, is met.

See these solved cases before continuing.
CUGGUGUGAGGAUAUCAGGGCACGCCCAAGGGCGUACCAAAUGAGAAGGCACAUGAGGAUCACCCAUGUGGGAC [Lasoena] (puzzle: Exclusion 4)
met
AUAGAGUCAGGAUAUUGCGCAGUGGACAUGAGGAUCACCCAUGUGAACUUCGUACCGGGCCAAGAAGGGACGGAAA [Onedra] (puzzle: Exclusion 5)
not met
GGCGGGACAGGAUAUCUAGCACUAAACAUGAGGAUCACCCAUGUGGUGGUCGCAGGUGUCAGAGAAGGGUCAAAAG [Atenabe] (puzzle: Exclusion 5)
met
AAGUACCGUCACGAUAGUGAUGGUACAACAAGCAAAUGUACAUGAGGAUCACCCAUGUCCUCUUUUGCUCGUCUUAU [Sensor 3 - 94] (puzzle: Sensor v3, turn-off variant 2)
not met
UAUCGGCGGACCGAGGCUUUUUGCUCGUCUUAUGCUACAACAUGAGGAUCACCCAUGUGGUGGUGGUCCGUUGUAGU [JL ViennaUCT Bitein mod 9] (puzzle: Sensor v3, turn-off variant 2)
not met

Could you tell me if the measured apparent KD of MS2 coat protein of GCUGCGCGAGGAUAUGCGGUUCGCGCGGUGGCCCGUGGCGGACAUGAGGAUCACCCAUGUAGAAGGCGUGCGGG [Apr-15 SS2-59] (puzzle: Exclusion 2) reaches 0.03 µM or more? not met

Form field: apparent KD of MS2 coat protein at least 0.03 µM? Entry: AUAUAGUCAGGAUAUCGAAGUGAGUGUUGGUGGGUAAGGUACGAGAAGGGACAUGAGGAUCACCCAUGUAGGAA [JR_Exclusion4)Sub004] (puzzle: Exclusion 4) met

Does the sequence CCGGCAUAGGAGGAUAUAGGAGUCGAUAGACACCUAGAAGGCCUGACAUGAGGAUCACCCAUGUGUCCUACCGG [Fiskers Ex 6 - 97] (puzzle: Exclusion 6) have recorded apparent KD of MS2 coat protein that is 0.03 µM or more? not met

In plain terms: is recorded apparent KD of MS2 coat protein at least 0.03 µM for AGCCUACAUGAGGAUCACCCAUGUCAGGAUAUCUCGCGACAUGUCAAGUUCACGUUGCAGAGAAGGGACUCGGG [Ononxe] (puzzle: Exclusion 1) ? met

Is reported apparent KD of MS2 coat protein greater than or equal to 0.03 µM here: UAAUGCAAGCAAAGAUUCUACAUGAGGAUCACCCAUGUGCUCGUCUUAUAAAGUACUAUCACGAAAGUGAUAGUACA [Mat - Sensor v3 - turn-off var 1 - Eli Mod - D96] (puzzle: Sensor v3, turn-off variant 1) met

Does CCGCCACAUGAGGAUCACCCAUGUCAGGAUAUCUAUCAUAGCAUCGAAAGAUGCGGGUAGAGAAGGGACUAUCC [ChP Ext 10-04-2015 #6] (puzzle: Exclusion 1) have a reported apparent KD of MS2 coat protein of at least 0.03 µM? not met
